target: T1, Aβ1-28 (human); assay: SPR (Biacore T200); antibody captured by anti-human Fc, Aβ1-28 as analyte; global 1:1 fit
T1 construct: Bought peptide (Bachem); also called Aß1-28 monomer; A131-28
T1 sequence (peptide, as listed by the source): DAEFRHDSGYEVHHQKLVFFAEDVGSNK
ENDPOINT_NAME: koff
Please answer using the number first and the unit second.

Request: // lookup koff for h2831 (antibody, V domains shown, Humanized IgG mAb; also called PB-0575) VH: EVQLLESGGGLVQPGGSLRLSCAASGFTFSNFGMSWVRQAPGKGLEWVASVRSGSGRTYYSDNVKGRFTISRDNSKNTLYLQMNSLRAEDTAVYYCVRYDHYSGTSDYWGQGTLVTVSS VL: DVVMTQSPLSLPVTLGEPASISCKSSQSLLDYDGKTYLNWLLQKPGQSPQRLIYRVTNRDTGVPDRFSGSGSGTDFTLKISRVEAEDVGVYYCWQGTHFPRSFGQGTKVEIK
Response: 0.000508 s⁻¹

Reference for the values: patent US20230331828A1
